# Test system: peptide-specific CTL precursors in PBMCs
# protocolDetails: Peptide-specific CTL precursor assay (IFN-γ production of peptide-stimulated PBMCs), Example 1;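 note: PBMCs cultured with each peptide at 10 µM, restimulated at 20 µM every 3 days up to 12 days, then 18 hr with peptide-pulsed target cells, IFN-γ by ELISA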
# Assay type: cell-based, human
# Design: key: Ar: p* ≦ 0.1 and 500 ≦ net**; A: p ≦ 0.05 and 50 ≦ net; B: p ≦ 0.05 and 25 ≦ net < 50; C: 0.05 < p < 0.1 and 50 ≦ net; AAAA: all four wells of quadruplicate assay were positive; AAA: three wells of quadruplicate assay were positive; AA: two wells of quadruplicate assay were positive
# statedConditions: PBMCs of the individual case, after 6th vaccination
observedProperty: Cellular response to peptide during the combination therapy, 6th

biopolymerSequence	resultValue
HYTNASDGL [lck208-216]	AA
DYLRSVLEDF [lck488-497]	ABB
